The compounds listed here are annotated with their cytotoxicity at 70.5 h.
- Procedure details: Human HepG2 cell viability assay in 384 well format
- Format: toxicity, cell-based
- Design: dose 125 nL, time 70.5 hour; concentration not given beside the values
- Experimental conditions: HepG2 cells, read-out: Inhibition

Compound | U | cytotoxicity at 70.5 h
CC(=O)Nc1ncc(S(=O)(=O)N2CCN(C3CCCCC3)CC2)s1 | % | -5.13
c1csc(-c2cc(CN3CCN(c4cnccn4)CC3)no2)c1 | % | -14.8
CC(C)=CCC1(CO)CCCN(Cc2cnc(N3CCOCC3)nc2)C1 (configuration not stated) | % | -6.39
O=C(Nc1ccccc1OCc1ccccn1)NC1CCOCC1 | % | -8.37
Cc1cc(NCc2cccc(C#N)c2)ccc1C(=O)N(C)C | % | -9.77
Cc1nc(CN2CCC3(C2)CN(C(=O)c2conc2C)C3)cs1 | % | -3.94
CCN1CC(C(=O)NCc2cccc(SC)c2)CC1=O (configuration not stated) | % | 18
O=C(CN1C(=O)CCC1=O)N1CCC(S(=O)(=O)Cc2ccco2)CC1 | % | -3.03
CC(C)c1ncc2c(n1)CN(CCCc1nc3ccccc3o1)CC2 | % | -3.98
Cc1noc(C)c1C(=O)N(C)C(C)c1ccncc1 (configuration not stated) | % | -5.68
c1ccc2c(c1)CC(N1CCCC(NCc3ccc4nonc4c3)C1)C2 (configuration not stated) | % | -17.7
CN(CCO)c1ncc(-c2ccc(NC(=O)[C@@H]3CCCCN3)cc2)cn1 | % | -1.72
